Parameter peptide exchange yield: see the listing below.
system: T1, HLA-A*02:01 (human)
T1 construct: MHC class I monomer in the UV-ligand exchange assay, captured on streptavidin plates; also called peptide-receptive MHC molecules
protocol notes: UV-ligand exchange, anti-β2m ELISA; grade of peptide exchange yield (legend: ≥20% = ++)

Solved cases below.
binder	test result
ALNPVIYTV [ALNPVIYTV (SEQ ID NO: 5, DRD4)]	20 to 50%
SLVEGEAVHLA [SLVEGEAVHLA (SEQ ID NO: 4, TFAP2E, TFAP2A, TFAP2B, TFAP2C)]	20 to 50%

Proceeding to the next binder to report its peptide exchange yield.
Task: Consider the binder shown here: KAFPFYNTV [KAFPFYNTV (SEQ ID NO: 12, NAIP)] What is its recorded peptide exchange yield?
Output: 20 to 50%
